Cited source: ChEMBL document CHEMBL3885861

Organism: Rattus norvegicus
Experiment: Open TG-GATES - Regimen: Single
Type: toxicity, organism-based, Sprague-Dawley
Design: regimen Single, gender Male, age 6 weeks
Conditions: in vivo, po, 0 mg/kg, 3 h, tissue Blood, route gavage, dose level Control
Readout label: RBC (x10_4/ul)

{"Molecule": "C=C[C@H]1C[N@@]2CC[C@H]1C[C@@H]2[C@@H](O)c1ccnc2ccc(OC)cc12", "Reported": 615}
{"Molecule": "Nc1ccc(Cc2ccc(N)cc2)cc1", "Reported": 584.2}
{"Molecule": "CN(C)CCCN1c2ccccc2Sc2ccc(Cl)cc21", "Reported": 627.6}
{"Molecule": "CN(CCOc1ccc(CC2SC(=O)NC2=O)cc1)c1ccccn1.O=C(O)/C=C\\C(=O)O (stereo not given) [ROSIGLITAZONE MALEATE]", "Reported": 614}
{"Molecule": "COc1ccc([C@@H]2Sc3ccccc3N(CCN(C)C)C(=O)[C@@H]2OC(C)=O)cc1", "Reported": 600.6}
{"Molecule": "CCO", "Reported": 622.4}
{"Molecule": "O=C(O)c1ccccc1Nc1ccccc1", "Reported": 627.8}
{"Molecule": "O=c1ccc2ccccc2o1", "Reported": 608.6}
{"Molecule": "COc1cc2ncnc(Nc3ccc(F)c(Cl)c3)c2cc1OCCCN1CCOCC1", "Reported": 610.2}
{"Molecule": "NS(=O)(=O)c1cc(C(=O)O)c(NCc2ccco2)cc1Cl [FUROSEMIDE]", "Reported": 615.6}
